Data provenance: patent US20250019382A1

Some compounds, each annotated with its measured pIC50.
Target: CDK9/CyclinT1 (Homo sapiens, UniProt P50750)
Sequence (P50750 whole entry): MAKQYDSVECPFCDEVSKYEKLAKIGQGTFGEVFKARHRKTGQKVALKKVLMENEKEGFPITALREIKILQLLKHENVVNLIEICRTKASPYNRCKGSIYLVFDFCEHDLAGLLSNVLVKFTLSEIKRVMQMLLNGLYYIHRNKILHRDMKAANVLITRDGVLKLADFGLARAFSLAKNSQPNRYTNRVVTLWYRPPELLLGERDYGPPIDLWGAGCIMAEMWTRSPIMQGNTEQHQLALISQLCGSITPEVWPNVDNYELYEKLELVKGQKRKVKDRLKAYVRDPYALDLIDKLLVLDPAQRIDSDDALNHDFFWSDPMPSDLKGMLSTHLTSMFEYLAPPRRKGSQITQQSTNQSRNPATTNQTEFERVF
Sequence (O60563 whole entry partner): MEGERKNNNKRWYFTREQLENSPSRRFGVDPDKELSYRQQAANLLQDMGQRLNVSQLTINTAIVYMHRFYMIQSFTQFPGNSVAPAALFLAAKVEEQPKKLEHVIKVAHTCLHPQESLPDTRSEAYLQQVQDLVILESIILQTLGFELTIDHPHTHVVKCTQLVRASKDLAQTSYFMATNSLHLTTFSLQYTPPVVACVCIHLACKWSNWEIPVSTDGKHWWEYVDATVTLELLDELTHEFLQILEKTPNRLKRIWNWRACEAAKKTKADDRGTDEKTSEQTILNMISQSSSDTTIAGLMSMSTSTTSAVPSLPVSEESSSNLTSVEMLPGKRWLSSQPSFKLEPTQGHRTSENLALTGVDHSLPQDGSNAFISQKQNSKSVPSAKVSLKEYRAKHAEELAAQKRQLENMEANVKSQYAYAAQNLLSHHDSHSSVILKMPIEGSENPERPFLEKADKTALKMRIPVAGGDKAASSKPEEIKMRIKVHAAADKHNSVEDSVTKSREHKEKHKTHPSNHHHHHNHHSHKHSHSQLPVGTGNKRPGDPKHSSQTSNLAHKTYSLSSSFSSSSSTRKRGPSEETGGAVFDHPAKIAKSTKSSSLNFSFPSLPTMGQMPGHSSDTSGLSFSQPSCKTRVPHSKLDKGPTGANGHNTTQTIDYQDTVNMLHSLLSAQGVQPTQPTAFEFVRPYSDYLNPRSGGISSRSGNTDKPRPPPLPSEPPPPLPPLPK
Test: CDK9/T1 ADPGlo kinase assay
Conditions: CDK9/CyclinT1 6 nM, ATP 10 microM, PDKtide 40 microM, 120 min RT
pIC50: −log10 of the molar value.
Property: pIC50

[[record]]
compound = "Fc1cccc(F)c1-c1nc(Nc2ccc(N3CCOCC3)cc2)n2nccc2n1"
property = "pIC50"
result = "> 6.00"

[[record]]
compound = "CCNC(=O)c1ccc(Nc2nc(-c3c(F)cccc3F)nc3ccnn23)cc1"
property = "pIC50"
result = "> 6.00"

[[record]]
compound = "CN(CCCF)[C@H]1CC[C@H](Nc2nc(-c3c(F)cccc3F)nc3c(Cl)cnn23)CC1"
property = "pIC50"
result = "> 7.70"

[[record]]
compound = "Fc1cccc(F)c1-c1nc(N[C@H]2CC[C@@H](N3CCCCC3)CC2)n2ncc(Cl)c2n1"
property = "pIC50"
result = "> 6.00"

[[record]]
compound = "CN(C)[C@H]1CC[C@H](Nc2nc(-c3c(F)cccc3F)nc3c(C(F)(F)F)cnn23)CC1"
property = "pIC50"
result = "> 6.70"

[[record]]
compound = "CN(CCCO)C1CCC(Nc2nc(-c3c(F)cccc3F)nc3c(Cl)cnn23)CC1 (stereo not drawn)"
property = "pIC50"
result = "> 7.70"

[[record]]
compound = "O=C(NC1CCOCC1)c1ccc(Nc2nc(-c3c(F)cccc3F)nc3ccnn23)cc1"
property = "pIC50"
result = "> 6.00"

[[record]]
compound = "CCNC(=O)c1ccc(Nc2nc(-c3c(F)cccc3Cl)nc3ccnn23)cc1"
property = "pIC50"
result = "> 6.00"

[[record]]
compound = "CN1CCC(N2CCC(n3cc(Nc4nc(-c5c(F)cccc5F)nc5c(Cl)cnn45)cn3)CC2)CC1"
property = "pIC50"
result = "> 6.70"

[[record]]
compound = "Cc1cc(C)c(CNc2nc(-c3c(F)cccc3F)nc3c(Cl)cnn23)cn1"
property = "pIC50"
result = "> 7.70"

[[record]]
compound = "CC(C)(C)N1CCN(c2ccc(Nc3nc(-c4c(F)cccc4F)nc4ccnn34)cc2)CC1"
property = "pIC50"
result = "> 6.70"

[[record]]
compound = "CCOc1cc(Nc2nc(-c3c(F)cccc3Cl)nc3ccnn23)ccc1N1CCN(C)CC1"
property = "pIC50"
result = "> 6.00"

[[record]]
compound = "NC1CCC(Nc2nc(-c3c(F)cccc3F)nc3c(Cl)cnn23)C1 (stereo not drawn)"
property = "pIC50"
result = "> 7.70"

[[record]]
compound = "CCOc1cc(Nc2nc(-c3c(F)cccc3Cl)nc3ccnn23)ccc1C1=CCN(C2CC2)CC1"
property = "pIC50"
result = "> 6.00"

[[record]]
compound = "CN(C)[C@@H]1CC[C@@H](Nc2nc(-c3c(F)cccc3F)nc3c(Cl)cnn23)C1"
property = "pIC50"
result = "> 7.70"

[[record]]
compound = "CN1CCN(C2CCN(c3ccc(Nc4nc(-c5c(F)cccc5F)nc5ccnn45)cc3)CC2)CC1"
property = "pIC50"
result = "> 6.00"

[[record]]
compound = "CN1CCN([C@H]2CC[C@H](Nc3nc(-c4c(F)cccc4F)nc4c(Cl)cnn34)CC2)CC1"
property = "pIC50"
result = "> 7.70"

[[record]]
compound = "CC(C)(C)N1CCN(c2ccc(Nc3nc(-c4ccccc4F)nc4ccnn34)cc2)CC1"
property = "pIC50"
result = "> 6.00"

[[record]]
compound = "CN1CCN(c2ccc(Nc3nc(-c4c(F)cccc4F)nc4ccnn34)cc2)CC1"
property = "pIC50"
result = "> 6.00"

[[record]]
compound = "Fc1cccc(F)c1-c1nc(Nc2ccc(N3CCC(N4CCOCC4)CC3)cc2)n2nccc2n1"
property = "pIC50"
result = "> 6.00"

[[record]]
compound = "Cn1cc(Nc2nc(-c3c(F)cccc3F)nc3c(C(F)(F)F)cnn23)cn1"
property = "pIC50"
result = "> 6.00"

[[record]]
compound = "CN(C)[C@H]1C[C@H](Nc2nc(-c3c(F)cccc3F)nc3c(Cl)cnn23)C1"
property = "pIC50"
result = "> 6.70"

[[record]]
compound = "N#Cc1cnn2c(N[C@H]3CC[C@H](N4CCOCC4)CC3)nc(-c3c(F)cccc3F)nc12"
property = "pIC50"
result = "> 6.70"

[[record]]
compound = "Fc1cccc(F)c1-c1nc(Nc2cnn(C3CCNCC3)c2)n2nccc2n1"
property = "pIC50"
result = "> 6.70"

[[record]]
compound = "N[C@@H]1CC[C@@H](Nc2nc(-c3c(F)cccc3F)nc3c(Cl)cnn23)C1"
property = "pIC50"
result = "> 7.70"

[[record]]
compound = "C=CCCN1CCC(n2cc(Nc3nc(-c4c(F)cccc4F)nc4ccnn34)cn2)CC1"
property = "pIC50"
result = "> 6.70"

[[record]]
compound = "N#Cc1cc(Nc2nc(-c3c(F)cccc3F)nc3ccnn23)ccc1N1CCOCC1"
property = "pIC50"
result = "> 6.00"

[[record]]
compound = "FCCN1CCC(n2cc(Nc3nc(-c4c(F)cccc4F)nc4ccnn34)cn2)CC1"
property = "pIC50"
result = "> 6.70"

[[record]]
compound = "CN1CCN(C2CCN(c3ccc(Nc4nc(-c5ccccc5F)nc5ccnn45)cc3)CC2)CC1"
property = "pIC50"
result = "> 6.00"

[[record]]
compound = "O=C(c1ccc(Nc2nc(-c3c(F)cccc3F)nc3c(Cl)cnn23)cc1)N1CCOCC1"
property = "pIC50"
result = "> 6.00"

[[record]]
compound = "CCOc1cc(Nc2nc(-c3c(F)cccc3F)nc3ccnn23)ccc1C1CCN(C)CC1"
property = "pIC50"
result = "> 6.00"

[[record]]
compound = "CN(C)C1CCC(Nc2nc(-c3c(F)cc(F)cc3F)nc3c(Cl)cnn23)CC1 (stereo not drawn)"
property = "pIC50"
result = "> 6.70"

[[record]]
compound = "COCCNC1CCC(Nc2nc(-c3c(F)cccc3F)nc3c(Cl)cnn23)CC1 (stereo not drawn)"
property = "pIC50"
result = "> 6.70"

